Reference source: patent US20200031778A1

# procedure details: Log P by HPLC on reversed phase columns (EEC directive 79/831 Annex V.A8; methods [a], [b], [c])
# Assay type: physicochemical
parameter: LogP

stdin: Entry OC(Cn1cncc1F)(c1ccc(Cl)cc1Br)C1(F)CC1 (centres unmarked) [I-431] : reported LogP = ?
stdout: 1.73^[a]

stdin: Entry N#Cc1cncn1CC(O)(CC1CC1)c1cc(F)c(F)c(Br)c1 (centres unmarked) [I-494] : reported LogP = ?
stdout: 2.74^[a]

stdin: Entry COc1cc(F)ccc1C(O)Cn1cncc1Cl (centres unmarked) [I-07] : reported LogP = ?
stdout: 1.07^[a]

stdin: Entry N#Cc1cncn1CC(O)(c1ccc(F)c(Br)c1F)C1(Cl)CC1 (centres unmarked) [I-616] : reported LogP = ?
stdout: 2.54^[a]

stdin: Entry N#Cc1cncn1CC(O)(c1cc(F)c(Cl)cc1Cl)C1(F)CC1 (centres unmarked) [I-578] : reported LogP = ?
stdout: 2.59^[a]

stdin: Entry CC(O)(Cn1cncc1F)c1cnc(Oc2ccc(Cl)cc2F)cc1C(F)(F)F (centres unmarked) [I-229] : reported LogP = ?
stdout: 2.43^[a]

stdin: Entry CC(C)(C)C(O)(Cn1cncc1C#N)c1cc(Br)cc(Br)c1 (centres unmarked) [I-490] : reported LogP = ?
stdout: 3.39^[a]

stdin: Entry CC(O)(Cn1cncc1Br)c1ccc(Oc2ccc(Br)cc2)cc1C(F)(F)F (centres unmarked) [I-192] : reported LogP = ?
stdout: 3.03^[a]

stdin: Entry N#Cc1cncn1CC(O)c1ccc(Oc2ccc(Br)nc2)nc1C(F)(F)F (centres unmarked) [I-154] : reported LogP = ?
stdout: 2.46^[a]

stdin: Entry N#Cc1cncn1CC(O)c1ccc(Oc2ccc(S(F)(F)(F)(F)F)cc2)nc1C(F)(F)F (centres unmarked) [I-146] : reported LogP = ?
stdout: 3.35^[a]

stdin: Entry C[Si](C)(C)C#CC(O)(Cn1cncc1C#N)C1(Cl)CC1 (centres unmarked) [I-318] : reported LogP = ?
stdout: 2.76^[a]

stdin: Entry N#Cc1cncn1CC(O)(CC1CC1)c1ccc(F)cc1F (centres unmarked) [I-414] : reported LogP = ?
stdout: 1.76^[a]

stdin: Entry CC(C)C(O)(Cn1cncc1C#N)c1ccc(Cl)cc1F (centres unmarked) [I-417] : reported LogP = ?
stdout: 2.68^[a]

stdin: Entry Cc1ccc(Oc2ccc(C(C)(O)Cn3cncc3Cl)c(Cl)c2)cc1 (centres unmarked) [I-156] : reported LogP = ?
stdout: 3.13^[a]

stdin: Entry OC(Cn1cncc1Cl)c1ccc(Oc2ccc(Cl)cc2)cc1F (centres unmarked) [I-32] : reported LogP = ?
stdout: 2.39^[a]

stdin: Entry CCOC(Cn1cncc1Cl)c1ccc(Oc2ccc(Br)cc2)cc1Br (centres unmarked) [I-58] : reported LogP = ?
stdout: 4.21^[a]

stdin: Entry CC(O)(Cn1cncc1C#N)c1ccc(Oc2ccc(Cl)cc2)cc1F (centres unmarked) [I-188] : reported LogP = ?
stdout: 3.20^[a]

stdin: Entry N#Cc1cncn1CC(O)(c1ccc(F)c(Cl)c1Cl)C1(Cl)CC1 (centres unmarked) [I-618] : reported LogP = ?
stdout: 2.58^[a]

stdin: Entry N#Cc1cncn1CC(O)(c1ccc(C2CC2)cc1Cl)C1(F)CC1 (centres unmarked) [I-392] : reported LogP = ?
stdout: 2.74^[a]

stdin: Entry CC(O)(Cn1cncc1C#N)c1cnc(Oc2ccc(C(F)(F)F)cc2)cc1Br (centres unmarked) [I-253] : reported LogP = ?
stdout: 3.27^[a]

stdin: Entry C[Si](C)(C)CC(O)(Cn1cncc1C#N)c1ccc(F)cc1 (centres unmarked) [I-227] : reported LogP = ?
stdout: 3.05^[a]

stdin: Entry N#Cc1cncn1CC(O)(c1ccc(Oc2ccc(Cl)cc2)cc1Cl)C1(Cl)CC1 (centres unmarked) [I-391] : reported LogP = ?
stdout: 3.78^[a]

stdin: Entry N#Cc1cncn1CC(O)(CC1CC1)c1cc(F)c(F)cc1F (centres unmarked) [I-514] : reported LogP = ?
stdout: 2.36^[a]
